meta.source: ChEMBL document CHEMBL2311454

Target or system Receptor-type tyrosine-protein phosphatase F (Homo sapiens, UniProt P10586); recorded quantity IC50.

O=C(O)c1cc2c(C#Cc3cccc(C(F)(F)F)c3)c(-c3ccccc3)oc2cc1O | > 10 µM

Now, please, on to the next molecule.
Qu. Which IC50 reading was recorded for the molecule O=C(O)c1cc2c(C#Cc3ccc(OC(F)(F)F)cc3)c(-c3ccccc3)oc2cc1O ?
Ans. > 10 µM

---

IC50, Dual specificity protein phosphatase 3 (Homo sapiens, UniProt P51452): measured values
One number for each entry, in µM.

Record excerpt, results attached:
O=C(O)c1cc2c(C#Cc3ccc(Oc4ccccc4)cc3)c(-c3ccccc3)oc2cc1O | 0.8
O=C(O)c1cc2c(/C=C\c3cc(F)cc(F)c3)c(-c3ccccc3)oc2cc1O | 8.6
O=C(O)c1cc2c(CCc3ccc(Oc4ccccc4)cc3)c(-c3ccccc3)oc2cc1O | 6.3

Please look at the following compound next.
Qu. Return reported IC50; argument: O=C(O)c1cc2c(CCc3ccc(OC(F)(F)F)cc3)c(-c3ccccc3)oc2cc1O
Ans. 6.7

---

# subject of test: Tyrosine-protein phosphatase non-receptor type 6 (Homo sapiens)
# Sequence (P29350 whole entry): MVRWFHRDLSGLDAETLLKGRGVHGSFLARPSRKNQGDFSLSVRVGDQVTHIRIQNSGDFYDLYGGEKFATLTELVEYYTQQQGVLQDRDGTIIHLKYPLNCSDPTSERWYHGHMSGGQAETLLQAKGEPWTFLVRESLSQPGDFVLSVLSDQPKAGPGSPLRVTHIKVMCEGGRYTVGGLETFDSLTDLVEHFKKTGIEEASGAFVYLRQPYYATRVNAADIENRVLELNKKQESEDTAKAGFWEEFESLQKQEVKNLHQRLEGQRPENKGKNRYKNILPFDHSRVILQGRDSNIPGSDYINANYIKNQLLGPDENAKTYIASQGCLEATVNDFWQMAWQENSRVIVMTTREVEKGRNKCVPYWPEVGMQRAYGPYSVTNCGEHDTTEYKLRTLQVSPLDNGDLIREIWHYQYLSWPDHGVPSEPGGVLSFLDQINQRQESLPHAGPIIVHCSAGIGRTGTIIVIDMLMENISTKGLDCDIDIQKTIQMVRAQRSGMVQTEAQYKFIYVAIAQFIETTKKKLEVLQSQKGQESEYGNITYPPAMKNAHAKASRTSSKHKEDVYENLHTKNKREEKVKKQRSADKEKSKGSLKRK
observation type: pIC50
Give bare numbers, as −log10 of the molar value.

// below: answered compounds
O=C(O)c1cc2c(C#Cc3ccc(Oc4ccccc4)cc3)c(-c3ccccc3)oc2cc1O | 6.12
O=C(O)c1cc2c(CCc3ccc(OC(F)(F)F)cc3)c(-c3ccccc3)oc2cc1O | 5.15
O=C(O)c1cc2c(CCc3ccc(Oc4ccccc4)cc3)c(-c3ccccc3)oc2cc1O | 5.43

Continue with the next compound.
Qu. I'd like to know its pIC50. The compound in question is O=C(O)c1cc2c(C#Cc3cccc(Cl)c3)c(-c3ccccc3)oc2cc1O
Ans. 5.47

---

# IC50 measurements, system: UniProt P08575
# Sequence (P08575 whole entry): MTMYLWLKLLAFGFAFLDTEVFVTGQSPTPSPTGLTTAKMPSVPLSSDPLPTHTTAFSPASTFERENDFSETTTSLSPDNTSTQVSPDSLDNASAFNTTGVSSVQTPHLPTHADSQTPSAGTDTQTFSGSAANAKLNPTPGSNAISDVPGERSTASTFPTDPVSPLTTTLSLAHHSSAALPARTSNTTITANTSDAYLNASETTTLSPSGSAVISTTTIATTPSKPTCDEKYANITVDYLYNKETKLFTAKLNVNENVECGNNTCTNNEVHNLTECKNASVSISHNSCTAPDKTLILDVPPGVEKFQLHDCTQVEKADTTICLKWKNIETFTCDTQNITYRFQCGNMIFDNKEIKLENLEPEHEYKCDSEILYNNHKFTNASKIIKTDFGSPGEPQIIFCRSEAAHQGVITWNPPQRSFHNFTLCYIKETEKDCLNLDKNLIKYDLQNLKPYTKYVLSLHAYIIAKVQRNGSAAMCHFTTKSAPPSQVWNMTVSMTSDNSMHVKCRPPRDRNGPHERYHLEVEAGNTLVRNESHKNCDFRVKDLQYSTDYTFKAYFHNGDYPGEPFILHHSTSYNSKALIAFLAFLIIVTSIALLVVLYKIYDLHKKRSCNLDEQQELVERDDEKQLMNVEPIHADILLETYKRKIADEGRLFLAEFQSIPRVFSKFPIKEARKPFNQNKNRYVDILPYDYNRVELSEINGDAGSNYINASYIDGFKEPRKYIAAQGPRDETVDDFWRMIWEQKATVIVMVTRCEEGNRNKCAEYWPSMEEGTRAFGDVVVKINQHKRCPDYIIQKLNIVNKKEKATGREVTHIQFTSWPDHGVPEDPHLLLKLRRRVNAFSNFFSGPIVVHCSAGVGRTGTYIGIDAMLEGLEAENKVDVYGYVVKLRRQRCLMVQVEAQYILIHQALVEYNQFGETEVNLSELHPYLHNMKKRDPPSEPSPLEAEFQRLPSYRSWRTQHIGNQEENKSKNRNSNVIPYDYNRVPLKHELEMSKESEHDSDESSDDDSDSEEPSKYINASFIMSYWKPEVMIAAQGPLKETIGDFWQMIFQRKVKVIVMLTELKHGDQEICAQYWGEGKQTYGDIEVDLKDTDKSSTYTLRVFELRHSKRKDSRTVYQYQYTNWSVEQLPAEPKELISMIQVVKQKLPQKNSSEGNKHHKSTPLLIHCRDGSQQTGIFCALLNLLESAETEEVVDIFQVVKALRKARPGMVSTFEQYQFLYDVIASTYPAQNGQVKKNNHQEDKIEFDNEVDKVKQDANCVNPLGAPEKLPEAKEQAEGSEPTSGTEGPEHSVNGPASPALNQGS
Numbers only, in µM.

Record excerpt, results attached:
O=C(O)c1cc2c(CCc3ccc(OC(F)(F)F)cc3)c(-c3ccccc3)oc2cc1O | 18.9
O=C(O)c1cc2c(/C=C\c3cc(F)cc(F)c3)c(-c3ccccc3)oc2cc1O | 13.1
O=C(O)c1cc2c(CCc3cccc(C(F)(F)F)c3)c(-c3ccccc3)oc2cc1O | 10.1
O=C(O)c1cc2c(CCc3cccc(F)c3)c(-c3ccccc3)oc2cc1O | 120
C#Cc1c(-c2ccccc2)oc2cc(O)c(C(=O)O)cc12 | 80

Qu. For the record O=C(O)c1cc2c(CCc3ccc(Oc4ccccc4)cc3)c(-c3ccccc3)oc2cc1O , what value of IC50 is listed for UniProt P08575?
Ans. 14.2

---

# subject of test: Tyrosine-protein phosphatase non-receptor type 9 (Homo sapiens, UniProt P43378)
# Sequence (P43378 whole entry): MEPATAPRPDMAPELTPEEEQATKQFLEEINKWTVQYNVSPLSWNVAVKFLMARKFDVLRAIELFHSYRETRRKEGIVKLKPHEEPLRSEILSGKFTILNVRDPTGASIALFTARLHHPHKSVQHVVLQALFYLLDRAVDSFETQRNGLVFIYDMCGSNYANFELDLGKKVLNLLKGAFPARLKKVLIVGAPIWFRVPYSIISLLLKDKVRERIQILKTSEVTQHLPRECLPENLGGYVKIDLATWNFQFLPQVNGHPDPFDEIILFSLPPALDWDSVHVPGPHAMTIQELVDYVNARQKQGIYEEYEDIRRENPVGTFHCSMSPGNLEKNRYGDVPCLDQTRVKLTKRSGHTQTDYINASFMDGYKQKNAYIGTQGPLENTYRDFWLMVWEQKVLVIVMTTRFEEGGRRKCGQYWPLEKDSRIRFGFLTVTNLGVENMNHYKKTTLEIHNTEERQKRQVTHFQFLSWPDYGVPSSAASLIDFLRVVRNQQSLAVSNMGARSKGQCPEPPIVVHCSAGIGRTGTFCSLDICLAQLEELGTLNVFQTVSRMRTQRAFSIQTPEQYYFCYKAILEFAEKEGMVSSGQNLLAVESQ
observation type: IC50 (µM)
Answers are plain numbers, in µM.

O=C(O)c1cc2c(C#Cc3ccccc3)c(-c3ccccc3)oc2cc1O | 15.1

Could I get IC50 for every one of these entries?
1. O=C(O)c1cc2c(CCc3ccc(Oc4ccccc4)cc3)c(-c3ccccc3)oc2cc1O
2. O=C(O)c1cc2c(CCc3ccc(OC(F)(F)F)cc3)c(-c3ccccc3)oc2cc1O
3. O=C(O)c1cc2c(/C=C\c3cc(F)cc(F)c3)c(-c3ccccc3)oc2cc1O

Ans.
7.7
8.4
9.2

---

# subject of test: Tyrosine-protein phosphatase non-receptor type 1 (Homo sapiens)
# Sequence (P18031 whole entry): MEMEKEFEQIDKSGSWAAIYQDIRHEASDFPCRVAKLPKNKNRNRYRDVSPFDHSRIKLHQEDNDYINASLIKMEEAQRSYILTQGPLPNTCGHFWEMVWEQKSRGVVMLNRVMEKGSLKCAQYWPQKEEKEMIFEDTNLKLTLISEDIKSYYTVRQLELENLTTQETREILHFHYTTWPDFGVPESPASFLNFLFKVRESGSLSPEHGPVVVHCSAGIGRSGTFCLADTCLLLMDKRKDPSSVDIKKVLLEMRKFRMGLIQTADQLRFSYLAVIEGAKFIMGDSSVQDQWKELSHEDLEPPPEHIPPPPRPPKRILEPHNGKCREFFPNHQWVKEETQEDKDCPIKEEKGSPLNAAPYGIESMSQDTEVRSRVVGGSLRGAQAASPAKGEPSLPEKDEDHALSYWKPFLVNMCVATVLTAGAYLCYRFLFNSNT
observation type: IC50 (µM)
Numbers only, in µM.

O=C(O)c1cc2c(C#Cc3ccc(F)cc3F)c(-c3ccccc3)oc2cc1O | 5.2

Qu. # get_value(readout= IC50, system= Tyrosine-protein phosphatase non-receptor type 1 (Homo sapiens)) for O=C(O)c1cc2c(C#Cc3ccccc3)c(-c3ccccc3)oc2cc1O
Ans. 14.6

---

# subject of test: Tyrosine-protein phosphatase non-receptor type 11 (Homo sapiens, UniProt Q06124)
# Sequence (Q06124 whole entry): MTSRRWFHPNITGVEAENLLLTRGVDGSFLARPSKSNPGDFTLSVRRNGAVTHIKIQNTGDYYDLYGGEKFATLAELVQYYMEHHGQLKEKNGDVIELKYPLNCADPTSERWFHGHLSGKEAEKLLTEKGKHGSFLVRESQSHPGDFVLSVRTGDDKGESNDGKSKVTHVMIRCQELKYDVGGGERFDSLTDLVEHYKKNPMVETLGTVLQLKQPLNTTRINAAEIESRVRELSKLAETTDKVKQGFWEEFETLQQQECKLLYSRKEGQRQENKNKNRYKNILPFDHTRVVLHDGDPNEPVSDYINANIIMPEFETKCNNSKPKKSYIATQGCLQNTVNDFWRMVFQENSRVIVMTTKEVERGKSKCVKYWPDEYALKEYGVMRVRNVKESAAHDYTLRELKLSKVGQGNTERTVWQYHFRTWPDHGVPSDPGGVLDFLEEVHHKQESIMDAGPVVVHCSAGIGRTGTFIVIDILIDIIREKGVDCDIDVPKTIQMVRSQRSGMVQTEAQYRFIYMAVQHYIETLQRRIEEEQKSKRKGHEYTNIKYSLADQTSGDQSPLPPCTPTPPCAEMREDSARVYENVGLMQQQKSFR
Binary label based on IC50 with cut-off 5 µM: below gives yes, not below gives no.

Here's what some known entries look like.
O=C(O)c1cc2c(C#CCO)c(-c3ccccc3)oc2cc1O | no
COc1cccc(C#Cc2c(-c3ccccc3)oc3cc(O)c(C(=O)O)cc23)c1 | no
O=C(O)c1cc2c(CCc3cccc(C(F)(F)F)c3)c(-c3ccccc3)oc2cc1O | yes
O=C(O)c1cc2c(C#Cc3cccc(F)c3)c(-c3ccccc3)oc2cc1O | yes
O=C(O)c1cc2c(C#Cc3ccc(F)cc3F)c(-c3ccccc3)oc2cc1O | yes

Alright, here's another compound for you.
Qu. Decide: IC50 of C[C@]12CCC(=O)C=C1CC[C@@H]1[C@@H]2CC[C@@]2(C)[C@H]1CC[C@]2(O)C#Cc1c(-c2ccccc2)oc2cc(O)c(C(=O)O)cc12 strictly below 5 µM?
Ans. no

---

# subject of test: Tyrosine-protein phosphatase non-receptor type 1 (Homo sapiens, UniProt P18031)
# Sequence (P18031 whole entry): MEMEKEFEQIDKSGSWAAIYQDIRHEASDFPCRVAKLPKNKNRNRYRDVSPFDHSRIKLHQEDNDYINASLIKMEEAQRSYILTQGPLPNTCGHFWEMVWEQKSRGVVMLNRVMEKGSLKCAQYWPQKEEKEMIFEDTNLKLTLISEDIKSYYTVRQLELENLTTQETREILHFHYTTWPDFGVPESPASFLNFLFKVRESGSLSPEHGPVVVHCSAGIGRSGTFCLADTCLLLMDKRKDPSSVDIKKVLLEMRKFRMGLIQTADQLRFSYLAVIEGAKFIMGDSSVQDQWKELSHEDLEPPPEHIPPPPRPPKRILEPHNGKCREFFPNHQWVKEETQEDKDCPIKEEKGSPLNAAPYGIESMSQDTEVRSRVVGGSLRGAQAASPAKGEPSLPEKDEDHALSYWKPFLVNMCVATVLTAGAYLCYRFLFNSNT
observation type: IC50 (µM)
Answers are plain numbers, in µM.

Worked cases, answers included:
O=C(O)c1cc2c(C#Cc3cccc(F)c3)c(-c3ccccc3)oc2cc1O | 12
O=C(O)c1cc2c(CCc3ccc(OC(F)(F)F)cc3)c(-c3ccccc3)oc2cc1O | 8.4
O=C(O)c1cc2c(/C=C\c3cc(F)cc(F)c3)c(-c3ccccc3)oc2cc1O | 8
O=C(O)c1cc2c(CCc3cccc(C(F)(F)F)c3)c(-c3ccccc3)oc2cc1O | 7.4
O=C(O)c1cc2c(C#Cc3cccc(Cl)c3)c(-c3ccccc3)oc2cc1O | 6.3

--- query ---
Qu. Fill in the recorded IC50 for this molecule, with Tyrosine-protein phosphatase non-receptor type 1 (Homo sapiens, UniProt P18031) as test system: O=C(O)c1cc2c(CCc3cccc(F)c3)c(-c3ccccc3)oc2cc1O
Ans. 60
